target: Leucine aminopeptidase (Plasmodium falciparum (isolate 3D7)) (UniProt Q8IL11); test: P. falciparum M17LAP inhibitors, primary screen, biochemical, fluorogenic H-Leu-NHMec substrate, 1536-well (AID 1619); conditions: recombinant M17LAP, H-Leu-NHMec fluorogenic kinetic assay; at 30 µM; active compounds read high;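 note: plate controls were full reaction with DMSO carrier for no effect and no enzyme background for full effect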
Sequence (Q8IL11 whole entry, looked up): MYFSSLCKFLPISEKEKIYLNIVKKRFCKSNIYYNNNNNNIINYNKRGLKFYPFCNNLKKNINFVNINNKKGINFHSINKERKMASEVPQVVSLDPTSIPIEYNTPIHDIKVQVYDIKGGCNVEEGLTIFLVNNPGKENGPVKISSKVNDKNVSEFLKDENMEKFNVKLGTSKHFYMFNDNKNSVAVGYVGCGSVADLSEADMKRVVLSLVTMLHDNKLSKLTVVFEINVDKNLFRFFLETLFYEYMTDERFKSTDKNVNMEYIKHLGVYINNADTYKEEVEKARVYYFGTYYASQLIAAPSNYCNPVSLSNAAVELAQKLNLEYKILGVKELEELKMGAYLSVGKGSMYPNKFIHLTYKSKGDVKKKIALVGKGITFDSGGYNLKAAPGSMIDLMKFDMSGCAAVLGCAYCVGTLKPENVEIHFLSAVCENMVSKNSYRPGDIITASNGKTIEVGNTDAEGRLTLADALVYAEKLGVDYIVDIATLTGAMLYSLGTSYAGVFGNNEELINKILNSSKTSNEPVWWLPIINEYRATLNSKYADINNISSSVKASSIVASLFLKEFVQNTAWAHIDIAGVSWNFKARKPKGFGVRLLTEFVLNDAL
Hit rate of the full screen: of about 220,000 compounds, about 830 (0.38%) were called active. The list is a sample of the results. Entries with a potency or affinity are not part of this list.
Would you kindly list inhibition for each of these compounds?
State the answer as a number, implicitly in %.

Find the recorded inhibition belonging to CC(=O)c1c(O)cc(=O)n(-c2ccccc2)c1-c1ccc(Cl)cc1 and report it.
-10.1

Next compound: CCOC(=O)C1CCCN(C(=O)c2cc(Nc3ccc(OC)cc3OC)nc3ccccc23)C1 (configuration not stated)
-1.02

# repeat for CC(C)(C)OC(=O)CN1C(=O)C(Sc2n[nH]c(-c3ccccc3)n2)CCc2ccccc21 (configuration not stated)
3.43

Follow-up item: CCCCCCCCn1c(N2CCN(c3cccc(Cl)c3)CC2)nc2c1c(=O)[nH]c(=O)n2C
0.06

Can you handle COc1ccc(NC(=O)C2CCC(C)(C(=O)O)C2(C)C)cc1 (configuration not stated) next?
14.3

Another compound: Cc1cc(C)cc(NC(=O)CSc2nc3c(c(=O)[nH]2)CN(Cc2ccc(F)cc2)CC3)c1
13.5

Next record, please: O=C(O)CCCCCNS(=O)(=O)c1ccc2c(c1)OCCO2
-3.71

Another compound to check: CC(=O)c1c(O)c(C)c(-c2ccccc2)n(-c2ccccc2)c1=O
31.5

Also C/C(=N/O)c1c(O)c(C)c(-c2ccccc2)n(-c2ccccc2)c1=O , if possible.
46.8

Then this compound: C=CCO/N=C(\C)c1c(O)c(C)c(-c2ccccc2)n(-c2ccccc2)c1=O
54

Ok, now CCOP(=O)(OCC)C(Nc1cccc([N+](=O)[O-])c1)c1ccccc1 (configuration not stated)
-1.19

Same for CC1(C(=O)O)CCC(C(=O)Nc2ccccc2)C1(C)C (configuration not stated)
1.51

Another compound to check: CN(c1ccccc1C(=O)N1CCN(c2cccc(Cl)c2)CC1)S(C)(=O)=O
-10.5

Try this compound too: O=C(Nc1ccc2c(c1)OCCO2)C1CCC1
-5.9

Same lookup for O=[N+]([O-])c1ccc(N2CCCC2)cc1NC(c1ccccc1)c1ccccc1 , please.
8.49

Subsequent entry: CN1C(=O)/C(=C/c2ccco2)SC1=Nc1ccc(N2CCOCC2)cc1
-4.86

Also CCN1C(=O)/C(=C\c2ccc(-c3ccc([N+](=O)[O-])cc3OC)o2)SC1=Nc1cccc(C(=O)O)c1 ?
28.7

What about this compound? COc1ccc(S(=O)(=O)Nc2nncs2)cc1
54.3

Query Cc1csc2nc(CCNS(=O)(=O)c3cccs3)cn12 next
-4.9

What about O=C(Nc1ccc2c(c1)OCCO2)C1CC1c1ccccc1 (configuration not stated) ?
-1.74

Note, next up: COCc1nnc(NS(=O)(=O)c2ccc(C)cc2)s1
4.91

Also check O=C(O)c1cc2c(ccc3ccccc32)o1
6.36

---

For each entry below, report its inhibition value.
biological target: Leucine aminopeptidase (Plasmodium falciparum (isolate 3D7)) (UniProt Q8IL11); assay: P. falciparum M17LAP inhibitors, primary screen, biochemical, fluorogenic H-Leu-NHMec substrate, 1536-well (AID 1619); conditions: recombinant M17LAP, H-Leu-NHMec fluorogenic kinetic assay; at 30 µM; active compounds read high;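 note: plate controls were full reaction with DMSO carrier for no effect and no enzyme background for full effect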
Hit rate of the full screen: of about 220,000 compounds, about 830 (0.38%) were called active. The list is a sample of the results. Entries with a potency or affinity are not part of this list. Residues, ends and D or L forms follow the SMILES beside them. *: point of attachment. Boc = CC(C)(C)OC(=O)*
Use % as the unit, but write only the number.

Would you kindly share the measured inhibition for Cc1ccccc1NC(=O)CSc1nnc(-c2ccco2)c(-c2ccco2)n1 ?
42.7

Here is the next molecule: N#CC(C#N)=C1C=C2C=C(N3CCCCC3)CCC2CC1 (stereo not given)
0.1

Request: CC(=O)Nc1ccc(NS(=O)(=O)c2cc([N+](=O)[O-])ccc2C)cc1
1.99

What would you report for COc1ccc(Nc2nc3ccccc3nc2NS(=O)(=O)c2cccs2)cc1 ?
9.26

Lookup Cc1cc(C)c2c(=O)n(CC(=O)Nc3cccc(F)c3)sc2n1
-3.07

Would you kindly repeat that for O=C(Nc1ccncc1)c1cccc2ccccc12 ?
7

Likewise for O=C(OCCN1C(=O)c2ccccc2C1=O)c1ccco1 ?
15.3

Also, CN=C1SC(CC(=O)Nc2ccc(N3CCOCC3)cc2)C(=O)N1C (stereo not given) please.
-4.74

Moving on to Cc1ccc2oc(=O)c3cnn(CC(=O)NCCc4ccsc4)c3c2c1
11.8

Moving on to the next molecule: O=C(NC(=S)Nc1ccccc1O)c1ccc(-c2ccc(Cl)cc2)o1
1.04

// query: COc1ccc2c(c1)c(C(=O)N/N=C/c1ccc(OC)c(OC)c1)c(C)n2C
-4.74

Quick one: O=C(Nc1ccc(Cl)cc1)c1csc(-c2ccccc2)n1
-10.4

Cool, now Cc1cc(C)nc(NS(=O)(=O)c2ccc(Br)cc2)n1
15.3

Another: N#C/C(=C/c1cn(CC(=O)O)c2ccccc12)C(=O)NCc1ccccc1
21.3

Also need COc1ccc(C(=O)CSc2n[nH]c(-c3ccncc3)n2)cc1[N+](=O)[O-] , thanks.
-7.99

Please give the result for COc1ccc(Cc2nnc(Nc3ccc(Cl)cc3)[nH]c2=O)cc1 too.
-7.25

// next record CC(=O)c1ccc(NC(=O)CSc2nnc(-c3ccco3)c(-c3ccco3)n2)cc1
22.5

Entry to check: Cn1c(=O)n(C)c2cc(S(=O)(=O)Nc3ccccc3O)ccc21
-0.99

Note, next up: COc1ccc(CCNC(=O)CC2Nc3ccccc3NC2=O)cc1 (stereo not given)
3.68

Follow-up item: Cc1nc(Nc2ccc(S(=O)(=O)N3CCCCC3C)cc2)c2nnn(Cc3ccccc3)c2n1 (stereo not given)
9.37

Also N#CC(C#N)=C1C=C2C=C(N3CCCCCC3)CCC2CC1 (stereo not given) , if possible.
10.6

Same again, this time with CCN(CC)CCN(C(=O)c1ccc2c(c1)CCCC2)c1nc2ccc(F)cc2s1
-4.78

And the next one, CC1CC(C)CN(CCOc2ccc(Br)cc2)C1 (stereo not given) ?
-2.12

Try this molecule too: NC1=NC(=O)/C(=C\c2ccco2)S1
25.9

Same question for Cc1ccc(/C=C/C(=O)NCCCc2ccccc2)cc1 please.
-0.31

Record: COc1ccc(NS(=O)(=O)c2cccs2)c(OC)c1
-8.72

// query: CC(C)(C)OC(=O)N1CCCC1C(=O)NC(Cc1ccccc1)C(=O)O (stereo not drawn) (Boc-Pro-Phe-OH; configuration not given here)
9.76

Lookup CC(C)(C)c1ccc(OC(=O)CN2C(=O)C3C4CCC(C4)C3C2=O)cc1 (stereo not given)
-0.46

Request: Cc1ccc(C)c(NC(=O)c2ccccc2NS(=O)(=O)c2cc([N+](=O)[O-])ccc2C)c1
31.8

Now consider O=C(NCCN1CCOCC1)c1ccc(NC(=O)C2COc3ccccc3O2)cc1 (stereo not given) and answer again.
3.85

Now give it for CC(C)c1ccc(Nc2ncccc2C(=O)O)cc1 too.
13.8

Try this molecule too: CC(=O)Nc1ccc(NC(=O)C2CCCN(c3nnc(-n4cccc4)s3)C2)cc1 (stereo not given)
4.4

What do we get for CC(C)(C)c1ccc(C(=O)c2c[nH]c(C(=O)NCC3CCCO3)c2)cc1 (stereo not given) ?
-3.09

Another molecule to check: COc1ccc2c(c1)c(C(=O)N/N=C/c1cccc(O)c1)c(C)n2C
11.1

Similarly, CCOC(=O)/C(C#N)=C\c1ccc(CC)s1 ?
14.8

How about COc1ccccc1NC(=S)NC(=O)c1ccc(-c2ccc(Cl)cc2)o1 ?
4.34

// repeat for c1ccc(-c2nc(NCC3CCCO3)c3oc4ccccc4c3n2)cc1 (stereo not given) and report
-4.77

Next up: CCCCCCN1C=CC(=C/C=C(\C#N)C(=O)OCC)C=C1
-2.08

Follow-up entry: Cc1cc(Cl)ccc1C(=O)C1CCCN(C(=O)CCn2cnnn2)C1 (stereo not given)
5.92

Could you do the same for Cc1cccc(NC(=O)CSc2nnc(-c3ccco3)o2)c1C , please?
0.69

Same question for CCOC(=O)c1c(NC(=O)C2CC=CCC2C(=O)O)sc(C)c1CC (stereo not given) please.
5.22

# iterate: CCOC(=O)c1cnc2c(OC)cccc2c1Nc1ccc2c(c1)OCCO2
2.45

Next molecule up: Nc1c(-c2cccc(Cl)c2)cnn1-c1cccc(C(F)(F)F)c1
5.43

Moving on to the next molecule: CCCc1cc(=O)[nH]c(Nc2ccc(Cl)cc2)n1
1.52

Repeat with NC(=O)c1cccc(CC(=O)c2ccccc2)c1
-5.22
